# assayed_target: S. aureus ClpP (Sa-ClpP) (Staphylococcus aureus, UniProt Q2G036)
# Sequence (Q2G036 whole entry): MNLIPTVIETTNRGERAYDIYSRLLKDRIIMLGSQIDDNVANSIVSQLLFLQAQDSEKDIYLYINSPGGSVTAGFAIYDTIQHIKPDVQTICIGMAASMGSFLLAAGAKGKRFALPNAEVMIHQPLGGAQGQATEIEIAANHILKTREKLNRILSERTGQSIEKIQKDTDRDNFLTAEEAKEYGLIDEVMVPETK
# measurement_notes: Casein-BODIPY digestion assay (ClpP activation)
# Experimental: The compounds were assayed in a casein digestion assay in order to determine their effect on ClpP activation. Briefly, the assay was carried out using S. aureus ClpP (“Sa-ClpP”) overexpressed in E. coli BL21 (DE3) and purified in a two-step process. Purity of the protein was assessed through SDS PAGE analysis. […] Velocity of each reaction was calculated and data was fit to a dose response curve using GraphPad Prism® software (GraphPad Software, Inc., La Jolla, Calif.). […]
Numbered stars: 1 amine (or outer) side, 2 acyl side, 3 side chain; on linkers, the order of the positions; unused ones are H or OH. Bridge positions count the residues as written; N and C are the ends. Square brackets hold non-standard residues; d marks the D form. Peptide text beside a SMILES is read from it. * marks the point of attachment. ξ: configuration not given here. Phe(3-Me) = Cc1cccc(C[C@H](N)C(=O)O)c1; NH(4-Cl-2-F-phenyl) = Fc1cc(Cl)ccc1N*; Pro(4R-Me) = C[C@H]1CN[C@H](C(=O)O)C1; Hyp = O=C(O)[C@@H]1C[C@@H](O)CN1; NH(3-Cl-phenyl) = Clc1cccc(N*)c1; NH(4-Cl-phenyl) = Clc1ccc(N*)cc1; ξNMeThr = CNC(C(=O)O)[C@@H](C)O; aThr = C[C@H](O)[C@H](N)C(=O)O; Pip = O=C(O)[C@@H]1CCCCN1; X3 = c1cc2c(cc1N*)OCCO2; X7 = Clc1ccc(N*)c(Cl)c1; CO = O=C([*:1])[*:2]
Overview of recorded EC50 for various compounds

Use these answered entries as a reference point.
compound	EC50
Cc1cccc(C[C@H](NC(=O)Nc2cccc(Cl)c2)C(=O)N[C@H]2COC(=O)[C@@H]3C[C@H](C)CN3C(=O)[C@H](C)NC(=O)[C@@H]3CCCCN3C(=O)[C@@H]3CCCN3C2=O)c1	1540 nM
Cc1cccc(C[C@H](NC(=O)Nc2cccc(Cl)c2)C(=O)N[C@@H]2C(=O)N3C[C@H](O)C[C@H]3C(=O)N3CCCC[C@H]3C(=O)N[C@@H](C)C(=O)N3C[C@H](C)C[C@H]3C(=O)O[C@H]2C)c1 [Compound 62] ({NH(3-Cl-phenyl)-CO}-[Phe(3-Me)][aThr][Hyp][Pip]A[Pro(4R-Me)]; ester 2-C)	420 nM
Cc1cccc(C[C@H](NC(=O)Nc2ccc(Cl)cc2F)C(=O)N[C@H]2COC(=O)[C@@H]3C[C@@H](C)CN3C(=O)[C@H](C)NC(=O)[C@@H]3CCCCN3C(=O)[C@@H]3C[C@@H](O)CN3C2=O)c1	380 nM
Cc1cccc(C[C@H](NC(=O)Nc2ccc3c(c2)OCCO3)C(=O)N[C@@H]2C(=O)N3CCC[C@H]3C(=O)N3CCCC[C@H]3C(=O)N[C@@H](C)C(=O)N3C[C@H](C)C[C@H]3C(=O)O[C@H]2C)c1 [Compound 21] ({X3-CO}-[Phe(3-Me)][aThr]P[Pip]A[Pro(4R-Me)]; ester 2-C)	370 nM
Cc1cccc(C[C@H](NC(=O)Nc2ccc(Cl)cc2)C(=O)N[C@@H]2C(=O)N3CCC[C@H]3C(=O)N3CCCC[C@H]3C(=O)N[C@@H](C)C(=O)N3C[C@H](C)C[C@H]3C(=O)O[C@H]2C)c1 [Compound 63] ({NH(4-Cl-phenyl)-CO}-[Phe(3-Me)][aThr]P[Pip]A[Pro(4R-Me)]; ester 2-C)	400 nM

# EC50 lookup, item Cc1cccc(C[C@H](NC(=O)Nc2ccc(Cl)cc2Cl)C(=O)N[C@@H]2C(=O)N3C[C@H](O)C[C@H]3C(=O)N3CCCC[C@H]3C(=O)N[C@@H](C)C(=O)N3C[C@H](C)C[C@H]3C(=O)O[C@H]2C)c1 [Compound 78] ({X7-CO}-[Phe(3-Me)][aThr][Hyp][Pip]A[Pro(4R-Me)]; ester 2-C)
330 nM

Can you check Cc1cccc(C[C@H](NC(=O)Nc2ccc(Cl)cc2F)C(=O)N[C@@H]2C(=O)N3CCC[C@H]3C(=O)N(C)C([C@@H](C)O)C(=O)N[C@@H](C)C(=O)N3C[C@H](C)C[C@H]3C(=O)O[C@H]2C)c1 (stereo partly drawn) [Compound 5] ({NH(4-Cl-2-F-phenyl)-CO}-[Phe(3-Me)][aThr]P[ξNMeThr]A[Pro(4R-Me)]; ester 2-C) next?
320 nM

----------
# measurement_notes: Solubility determination
# Type: physicochemical
Numbered stars: 1 amine (or outer) side, 2 acyl side, 3 side chain; on linkers, the order of the positions; unused ones are H or OH. Bridge positions count the residues as written; N and C are the ends. Square brackets hold non-standard residues; d marks the D form. Peptide text beside a SMILES is read from it. * marks the point of attachment. Piperazine(2S-CO,4-Me) = CN1CCN[C@H](C(=O)O)C1; NH(1,3-benzodioxol-5-yl) = c1cc2c(cc1N*)OCO2; Phe(3-Me) = Cc1cccc(C[C@H](N)C(=O)O)c1; NH(4-Cl-2-F-phenyl) = Fc1cc(Cl)ccc1N*; Pro(4R-Me) = C[C@H]1CN[C@H](C(=O)O)C1; Propanoyl(3-NMe2) = CN(C)CCC(=O)*; Hyp = O=C(O)[C@@H]1C[C@@H](O)CN1; aThr = C[C@H](O)[C@H](N)C(=O)O; Pip = O=C(O)[C@@H]1CCCCN1; CO = O=C([*:1])[*:2]
readout_label: μsol (μM) (µM)
Record the value in µM, omitting the unit from your answer.

Use these answered entries as a reference point.
compound	μsol (μM) (µM)
Cc1cccc(C[C@H](NC(=O)Nc2ccc3c(c2)OCO3)C(=O)N[C@H]2COC(=O)[C@@H]3C[C@@H](C)CN3C(=O)[C@H](C)NC(=O)[C@@H]3CN(C)CCN3C(=O)[C@@H]3CCCN3C2=O)c1 [Compound 17] ({NH(1,3-benzodioxol-5-yl)-CO}-[Phe(3-Me)]SP[Piperazine(2S-CO,4-Me)]A[Pro(4R-Me)]; ester 2-C)	71.1
Cc1cccc(C[C@H](NC(=O)Nc2ccc(Cl)cc2F)C(=O)N[C@@H]2C(=O)N3C[C@H](O)C[C@H]3C(=O)N3CCN(C)C[C@H]3C(=O)N[C@@H](C)C(=O)N3C[C@H](C)C[C@H]3C(=O)O[C@H]2C)c1 [Compound 31] ({NH(4-Cl-2-F-phenyl)-CO}-[Phe(3-Me)][aThr][Hyp][Piperazine(2S-CO,4-Me)]A[Pro(4R-Me)]; ester 2-C)	54.7

# μsol (μM) lookup, item Cc1cccc(C[C@H](NC(=O)Nc2ccc(Cl)cc2F)C(=O)N[C@@H]2C(=O)N3C[C@H](OC(=O)CCN(C)C)C[C@H]3C(=O)N3CCCC[C@H]3C(=O)N[C@@H](C)C(=O)N3C[C@H](C)C[C@H]3C(=O)O[C@H]2C)c1 [Compound 46] ({NH(4-Cl-2-F-phenyl)-CO}-[Phe(3-Me)][aThr][Hyp](Propanoyl(3-NMe2))[Pip]A[Pro(4R-Me)]; ester 2-C)
12.1

----------
# measurement_notes: Microsomal metabolic stability
# Format: in vitro ADME, human
# details: human, pH 7.4
Numbered stars: 1 amine (or outer) side, 2 acyl side, 3 side chain; on linkers, the order of the positions; unused ones are H or OH. Bridge positions count the residues as written; N and C are the ends. Square brackets hold non-standard residues; d marks the D form. Peptide text beside a SMILES is read from it. * marks the point of attachment. Phe(3-CF3) = N[C@@H](Cc1cccc(C(F)(F)F)c1)C(=O)O; Piperazine(2S-CO,4-Me) = CN1CCN[C@H](C(=O)O)C1; Phe(3,5-Me2) = Cc1cc(C)cc(C[C@H](N)C(=O)O)c1; Phe(3-Cl) = N[C@@H](Cc1cccc(Cl)c1)C(=O)O; Phe(3-Me) = Cc1cccc(C[C@H](N)C(=O)O)c1; NH(4-Cl-2-F-phenyl) = Fc1cc(Cl)ccc1N*; Pro(4R-Me) = C[C@H]1CN[C@H](C(=O)O)C1; X1 = O=C([C@@H]1CSCCN1[*:1])[*:2]; Hyp = O=C(O)[C@@H]1C[C@@H](O)CN1; NH(4-Et-phenyl) = CCc1ccc(N*)cc1; aThr = C[C@H](O)[C@H](N)C(=O)O; Pip = O=C(O)[C@@H]1CCCCN1; CO = O=C([*:1])[*:2]
Overview of recorded Human for various compounds

compound	Human
C[C@@H]1C[C@H]2C(=O)O[C@@H](C)[C@H](NC(=O)[C@H](Cc3cccc(Cl)c3)NC(=O)Nc3ccc(Cl)cc3F)C(=O)N3CCC[C@H]3C(=O)N3CCN(C)C[C@H]3C(=O)N[C@@H](C)C(=O)N2C1 [Compound 33] ({NH(4-Cl-2-F-phenyl)-CO}-[Phe(3-Cl)][aThr]P[Piperazine(2S-CO,4-Me)]A[Pro(4R-Me)]; ester 2-C)	9.25 ± .255 h
CCc1ccc(NC(=O)N[C@@H](Cc2cccc(C)c2)C(=O)N[C@H]2COC(=O)[C@@H]3C[C@@H](C)CN3C(=O)[C@H](C)NC(=O)[C@@H]3CN(C)CCN3C(=O)[C@@H]3CCCN3C2=O)cc1 [Compound 16] ({NH(4-Et-phenyl)-CO}-[Phe(3-Me)]SP[Piperazine(2S-CO,4-Me)]A[Pro(4R-Me)]; ester 2-C)	0.86 ± 0.07 h
Cc1cc(C)cc(C[C@H](NC(=O)Nc2ccc(Cl)cc2F)C(=O)N[C@@H]2C(=O)N3CCC[C@H]3C(=O)N3CCCC[C@H]3C(=O)N[C@@H](C)C(=O)N3C[C@H](C)C[C@H]3C(=O)O[C@H]2C)c1 [Compound 4] ({NH(4-Cl-2-F-phenyl)-CO}-[Phe(3,5-Me2)][aThr]P[Pip]A[Pro(4R-Me)]; ester 2-C)	0.94 ± 0.09 h
CCc1ccc(NC(=O)N[C@@H](Cc2cccc(C)c2)C(=O)N[C@@H]2C(=O)N3C[C@H](O)C[C@H]3C(=O)N3CCCC[C@H]3C(=O)N[C@@H](C)C(=O)N3C[C@H](C)C[C@H]3C(=O)O[C@H]2C)cc1 [Compound 25] ({NH(4-Et-phenyl)-CO}-[Phe(3-Me)][aThr][Hyp][Pip]A[Pro(4R-Me)]; ester 2-C)	15.19 ± 2.47 h
Cc1cccc(C[C@H](NC(=O)Nc2ccc(Cl)cc2F)C(=O)N[C@H]2COC(=O)[C@@H]3C[C@@H](C)CN3C(=O)[C@H](C)NC(=O)[C@@H]3CCCCN3C(=O)[C@@H]3CCCN3C2=O)c1	0.89 ± 0.13 h

# Human lookup, item Cc1cccc(C[C@H](NC(=O)Nc2ccc(Cl)cc2F)C(=O)N[C@@H]2C(=O)N3CCC[C@H]3C(=O)N3CCSC[C@H]3C(=O)N[C@@H](C)C(=O)N3C[C@H](C)C[C@H]3C(=O)O[C@H]2C)c1 [Compound 38] ({NH(4-Cl-2-F-phenyl)-CO}-[Phe(3-Me)][aThr]P[X1]A[Pro(4R-Me)]; ester 2-C)
1.00 ± .003 h

Can you check C[C@@H]1C[C@H]2C(=O)OC[C@H](NC(=O)[C@H](Cc3cccc(C(F)(F)F)c3)NC(=O)Nc3ccc(Cl)cc3F)C(=O)N3CCC[C@H]3C(=O)N3CCN(C)C[C@H]3C(=O)N[C@@H](C)C(=O)N2C1 [Compound 18] ({NH(4-Cl-2-F-phenyl)-CO}-[Phe(3-CF3)]SP[Piperazine(2S-CO,4-Me)]A[Pro(4R-Me)]; ester 2-C) next?
0.75 ± 0.11 h

Can you check Cc1cccc(C[C@H](NC(=O)Nc2ccc(Cl)cc2F)C(=O)N[C@@H]2C(=O)N3CCC[C@H]3C(=O)N3CCCC[C@H]3C(=O)N[C@@H](C)C(=O)N3C[C@H](C)C[C@H]3C(=O)O[C@H]2C)c1 [Compound 3] ({NH(4-Cl-2-F-phenyl)-CO}-[Phe(3-Me)][aThr]P[Pip]A[Pro(4R-Me)]; ester 2-C) next?
4.68 ± 0.78 h
